# measured-target: T1, OC2 CUT domain;OC2 HOX domain (human;human, UniProt O95948;O95948 317-417;420-490, |)
# T1 sequence 1: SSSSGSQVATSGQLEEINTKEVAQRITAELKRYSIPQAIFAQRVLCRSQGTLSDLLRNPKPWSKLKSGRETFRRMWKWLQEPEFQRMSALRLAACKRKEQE
# T1 sequence 2: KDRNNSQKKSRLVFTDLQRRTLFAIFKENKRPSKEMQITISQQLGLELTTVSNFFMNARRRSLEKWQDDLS
# protocol-summary: ITC; CUT and HOX as separate polypeptides; ITC: 1X PBS pH 7.4, 0.005% Tween-20, 1 mM beta-ME, 25 C (also 12 and 30 C for heat capacity); BLI: 1X PBS, 0.5 mM TCEP, 0.005% Tween-20
# setup-conditions: protein: recombinant;recombinant; copies: 1;1
pKd: −log10 of the molar value.
observed-property: pKd

1) PEG10 promoter DNA (12mer duplex) (dsDNA) DNA 1: AGATCGATTTGC DNA 2: GCAAATCGATCT: 5.86
